What follows is literature data on IC50 for PDE1A (Homo sapiens, UniProt P54750).

Example entries and their recorded answers appear below.
* CCCc1nn(C)c2c(=O)[nH]c(N(C)Cc3cccc(N4CCOCC4)c3)nc12 | 101 to 500 nM
* CC[C@@]12C=C(c3noc(C)n3)n3c4c(c5ccccc53)CCN(CCC1)[C@H]42 | 1000 to 20000 nM
* CCCc1nn(C)c2c(=O)[nH]c(N(C)Cc3ccccc3Cl)nc12 | 101 to 500 nM
* CN1C(=O)c2c(nn(Cc3ccc(-c4cccc(F)n4)cc3)c2Nc2ccccc2)N2C1=N[C@@H]1CCC[C@@H]12 | 0.027 nM
* COc1cc(-c2cc(N[C@@H]3CCOC3)c3c(cnn3C(C)C)n2)c(OC)cn1 | 1160 nM

Please report IC50 for every entry that follows.
1. O=C(Nc1ccc(F)cc1)N1CC(c2nc3c(cnn3C3CCCCC3)c(=O)[nH]2)C1
2. COc1cccc(C(=O)N2CCCC(c3nc4c(c(C)nn4-c4ccccc4)c(=O)[nH]3)C2)c1 (stereo not drawn)
3. Cc1nc(-c2ccccc2)sc1CN(C)c1nc2c(C(C)(C)C)nn(C)c2c(=O)[nH]1

## Result
["1 to 100 nM", "501 to 1000 nM", "< 100 nM"]

Please report IC50 for every entry that follows.
1. CCCc1nn(C)c2c(=O)[nH]c(NCc3cccc(CN4CCOCC4)c3)nc12
2. CCCc1nn(C)c2c(=O)[nH]c(N(C)Cc3ccc(C(F)(F)F)cc3)nc12
3. CCCC(C)CN(Cc1cccc(N2CCOCC2)c1)c1nc2c(C(C)(C)C)nn(C)c2c(=O)[nH]1 (stereo not drawn)
4. COc1cccc(C(=O)N2CCCC(c3nc4c(c(C)nn4C4CCC4)c(=O)[nH]3)C2)c1 (stereo not drawn)
5. O=C(NCCCN1CCOCC1)N1CC(c2nc3c(cnn3C3CCCCC3)c(=O)[nH]2)C1

## Result
> 500 nM
101 to 500 nM
< 100 nM
501 to 1000 nM
501 to 1000 nM

* * *

What follows is literature data on pIC50 for PDE1A (Homo sapiens).
pIC50: −log10 of the molar value.

Please report pIC50 for every entry that follows.
1. COc1ccc2c(N(C)C3CCOC3)ncnc2c1OC (centres unmarked)
2. CC[C@@]12C=C(/C=C/C(N)=O)n3c4c(c5ccccc53)CCN(CCC1)[C@H]42
3. O=c1[nH]c(C2CN(c3nc(-c4ccccc4)cs3)C2)nc2c1cnn2C1CCCCC1
4. CN(C)c1ccc(C(=O)N2CCCC(c3nc4c(cnn4C4CCCCC4)c(=O)[nH]3)C2)cc1 (centres unmarked)
5. Cc1nn(C2CCCCC2)c2nc(C3CCCN(S(=O)(=O)c4ccccc4Cl)C3)[nH]c(=O)c12 (centres unmarked)

## Result
6.44
4.00 to 4.70
7.00 to 9.00
6.30 to 7.00
5.82 to 6.00

Please report pIC50 for every entry that follows.
1. Cc1nn(C2CCCCC2)c2nc(C3CCCN(S(=O)(=O)c4ccccc4OC(F)(F)F)C3)[nH]c(=O)c12 (centres unmarked)
2. O=c1[nH]c(C2CN(c3ccc(C(F)(F)F)cc3)C2)nc2c1cnn2C1CCCCC1

## Result
["5.82 to 6.00", "6.30 to 7.00"]

Please report pIC50 for every entry that follows.
1. CCCc1nn(C)c2c(=O)[nH]c(N3CCc4cc(OC)c(OC)cc4C3C)nc12 (centres unmarked)
2. CCCc1nn(C)c2c(=O)[nH]c(N(CCC)CCC)nc12

## Result
1: 6.30 to 7.00; 2: > 7.00

Please report pIC50 for every entry that follows.
1. CCCc1nn(C)c2c(=O)[nH]c(N(C)Cc3cccc4ccccc34)nc12
2. CCCCNC(=O)N1CC(c2nc3c(cnn3C3CCCCC3)c(=O)[nH]2)C1

## Result
1: < 6.30; 2: 7.00 to 9.00
